The measurements presented in this section are drawn from patent US10669272B2.

- target.or.test.system: human DGKα (Homo sapiens, UniProt P23743)
- Construct: TVMV protease cleavage site (C); Hexa-His (C); made in house; host or cells: Sf9 insect cells (baculovirus, Bac-to-Bac)
- Sequence (P23743 with tags, fused parts or gaps): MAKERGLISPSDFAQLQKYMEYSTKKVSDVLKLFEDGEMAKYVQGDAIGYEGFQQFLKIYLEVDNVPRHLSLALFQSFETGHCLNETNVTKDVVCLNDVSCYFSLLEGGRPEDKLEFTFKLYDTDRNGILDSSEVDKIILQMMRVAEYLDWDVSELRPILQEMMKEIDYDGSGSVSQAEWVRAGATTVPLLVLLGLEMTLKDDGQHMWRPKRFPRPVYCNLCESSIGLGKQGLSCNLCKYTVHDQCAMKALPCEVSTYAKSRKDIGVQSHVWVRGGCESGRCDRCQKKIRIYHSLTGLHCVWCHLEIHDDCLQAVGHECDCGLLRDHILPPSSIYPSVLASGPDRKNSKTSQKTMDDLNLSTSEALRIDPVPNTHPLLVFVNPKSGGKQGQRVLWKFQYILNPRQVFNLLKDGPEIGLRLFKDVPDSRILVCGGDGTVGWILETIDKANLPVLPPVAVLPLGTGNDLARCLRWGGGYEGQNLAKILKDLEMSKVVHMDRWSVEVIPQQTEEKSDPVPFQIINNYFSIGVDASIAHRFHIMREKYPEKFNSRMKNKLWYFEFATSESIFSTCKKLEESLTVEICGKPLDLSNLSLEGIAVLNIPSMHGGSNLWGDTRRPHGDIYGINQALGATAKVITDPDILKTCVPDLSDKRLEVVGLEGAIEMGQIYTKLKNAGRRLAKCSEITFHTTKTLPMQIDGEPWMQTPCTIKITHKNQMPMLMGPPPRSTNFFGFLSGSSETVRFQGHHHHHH
- experiment.description: DGKα LIPGLO assay (extruded liposome substrate), in vitro DGK inhibition
- Format: biochemical
- cond: liposome (LIPGLO) assay; read-out: DGKa LIPGLO IC50
measure.name: pIC50
The meaning of pIC50 here: minus log10 of the concentration in molar units.

Consider the reported pIC50 for these molecules:
[
  {
    "molecule": "CC[C@H]1CN(Cc2c(F)cc(F)cc2F)[C@H](C)CN1c1cc(=O)n(C)c2ccc(C#N)nc12",
    "endpoint.result": 7.42
  },
  {
    "molecule": "C[C@@H]1CN(c2cc(=O)n(C)c3ccc(C#N)nc23)[C@@H](C)CN1Cc1ccc(OC(F)(F)F)c(F)c1",
    "endpoint.result": 6.16
  },
  {
    "molecule": "COC(=O)C1CN(C(c2ccc(F)cc2)c2ccc(F)cc2)CCN1c1c(C#N)c(=O)n(C)c2ccc(C#N)nc12 (single isomer, unassigned) [Example 116]",
    "endpoint.result": 5.02
  },
  {
    "molecule": "COCC(c1ccc(C(F)(F)F)cn1)N1C[C@H](C)N(c2cc(=O)n(C)c3ccc(C#N)nc23)C[C@H]1C (single isomer, unassigned) [Example 1278]",
    "endpoint.result": 6.66
  },
  {
    "molecule": "C[C@@H]1CN(c2cc(=O)n(C)c3ccc(C#N)nc23)[C@@H](C)CN1C(c1ccc(F)cc1)c1cnccn1 (single isomer, unassigned) [Example 674]",
    "endpoint.result": 6.40
  }
]

Summary for this molecule, CC(c1nc(C2CC2)no1)N1C[C@H](C)N(c2c(C#N)c(=O)n(C)c3ccc(C#N)nc23)C[C@H]1C (single isomer, unassigned) [Example 1307] : pIC50 is 5.25

Summary for this molecule, CC[C@@H]1CN(c2cc(=O)n(C)c3ccc(C#N)nc23)[C@@H](C)CN1C(C)c1ccc(Cl)cc1F (single isomer, unassigned) [Example 1352] : pIC50 is 6.92

Summary for this molecule, C[C@@H]1CN(c2cc(=O)n(C)c3ccc(C#N)nc23)[C@@H](C)CN1C(c1ccccc1)c1ccc(Cl)cc1 (single isomer, unassigned) [Example 670] : pIC50 is 5.96

Summary for this molecule, CC[C@H]1CN(C(C)c2ccc(OC(F)(F)F)cc2F)[C@H](CC)CN1c1cc(=O)n(C)c2ccc(C#N)nc12 (single isomer, unassigned) [Example 1372] : pIC50 is 6.34

Summary for this molecule, CC(c1ccc(OC(F)(F)F)c(F)c1)N1C[C@H](C)N(c2cc(=O)n(C)c3ccc(C#N)nc23)C[C@H]1C (single isomer, unassigned) [Example 1270] : pIC50 is 5.77

Summary for this molecule, C[C@@H]1CN(c2cc(=O)n(C)c3ccc(C#N)nc23)[C@@H](C)CN1Cc1nnnn1C1CC1 : pIC50 is 4.30

Summary for this molecule, CC[C@@H]1CN(c2cc(=O)n(C)c3ccc(C#N)nc23)[C@@H](C)CN1C(C)c1ccc(C(F)(F)F)cc1F (single isomer, unassigned) [Example 1085] : pIC50 is 6.44
